experiment: NCI Yeast Anticancer Drug Screen. Data for the sgs1 mgt1 strain (AID 161);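 also: 0% = growth of cultures given vehicle only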; details: S. cerevisiae sgs1 mgt1 strain, at 50.0 µM, active compounds read high
About 79,000 compounds went through this panel and 15% of them were active in at least one assay; those are over-represented in the sample as a whole.
endpoint-label: growth inhibition (%)
One number for each entry, in %.

A selection of reference data follows.
State the recorded growth inhibition for this entry: O=C(O)CCc1ccccc1CC(=O)O -10.8

For CN1NC(=O)SC(=O)c2ccccc2C1=O , what is its reported growth inhibition? 0.1

Name the reported growth inhibition value associated with the molecule CCOC(=O)n1cccc(C)c1=N 18.9

Sample O=C(CCN1CCOCC1)c1csc2ccccc12 — what was its growth inhibition? 12.9

Batch request: growth inhibition per item, same order as input.
1. S=c1nc[nH]c2c1CN(Cc1ccccc1)CC2
2. COc1ccc(N2C(=O)CSC2=S)cc1
3. CC1CNC(=O)C(=O)N1 (stereo unspecified)
4. CC1(C(Cl)Cl)C=CC(=O)c2ccccc21 (stereo unspecified)

1. 4.6
2. 24.1
3. 1.75
4. 21.4

# per-item lookup of growth inhibition; items listed below
1. Cc1ccc(-n2cnc3c(N/N=C4\SCC(=O)N4c4ccccc4)ncnc32)cc1
2. CN(C)CC1CCC(CN(C)C)C1=NO (stereo unspecified)
3. C=C1N(c2cc(OC)c(OC)c(OC)c2)C(=O)OC12CCCCC2
4. O=C(CCCCl)c1ccccc1
5. C=C(C)[C@H]1C[C@@H](O)[C@H]2O[C@@]2(C)C1
6. CC(=O)OCC(=O)c1ccccc1

40.2
-4.1
0.2
-18.1
-25.9
-3.8

----------
experiment: NCI Yeast Anticancer Drug Screen. Data for the bub3 strain (AID 167); conditions: S. cerevisiae bub3 mutant strain, at 50.0 µM, active compounds read high
About 79,000 compounds went through this panel and 15% of them were active in at least one assay; those are over-represented in the sample as a whole. Activity calls are given as the source filed them. No stated cut-off is given here; in the data, active means growth inhibition above about 70%; inactive means the rest.
Can you tell me growth inhibition for the items I'm about to list?

Entry under review: O=C1c2ccccc2C(=O)c2[nH]ncc21 . Reported growth inhibition? 10.1% (inactive)

Given the entry CCC(C)N(C(=O)C(C)Br)C(C)CC (stereo not drawn) , report its measured growth inhibition. -10% (inactive)

// next item, growth inhibition requested
So what does the record say about growth inhibition for c1ccc2c(c1)C1c3ccccc3C2C2OC12 (stereo not drawn) ? -10.1% (inactive)

----------
assay: NCI Yeast Anticancer Drug Screen. Data for the cln2 rad14 strain (AID 165);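 also: 0% = growth equal to vehicle treated cultures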; details: S. cerevisiae cln2 rad14 strain, at 50.0 µM
This is part of a sample that, as a whole, favours compounds with a hit. Of some 79,000 tested, about 15% had one in any assay. Calls of active or inactive are those of the source. No stated cut-off is given here; in the data, active means growth inhibition above about 70%; inactive means the rest.
Answer with one of the outcomes yes (1) = active, no (0) = inactive

Past entries and their recorded results:
Could you please tell me the result logged for CCOc1ccccc1NC(=O)CC(C)=O in this assay? no (0)

Could you kindly confirm the outcome this assay logged for O=c1c(C(c2ccc(Cl)cc2)c2c(O)c3ccccc3n(-c3ccccc3)c2=O)c(O)c2ccccc2n1-c1ccccc1 ? no (0)

Could you please tell me the result logged for COc1cc(/C=C2\CCC(CN(C)C)C2=O)ccc1OC(=O)c1ccccc1 (centres undefined) in this assay? yes (1)

Could you now look at the following molecule, please?
What was the test verdict on CCCCCCCCCCCCCC(=O)CC ? no (0)

----------
Experiment: NCI Yeast Anticancer Drug Screen. Data for the mec2-1 strain (AID 157)
Settings: S. cerevisiae mec2-1 strain, at 50.0 µM, active compounds read high
Experimental: Growth inhibition of yeast strains with defined genetic alterations is measured as a screen for potential anti-cancer activity. Selected strains with alterations in DNA damage repair or cell cycle control were exposed to compounds and growth inhibition was measured relative to vehicle treated controls. The strain used in this assay is mec2-1
About 79,000 compounds went through this panel and 15% of them were active in at least one assay; those are over-represented in the sample as a whole. *1 amine or outer side, *2 acyl side, *3 side chain or, on linkers, in order; H or OH if unused. Where a SMILES comes first, the peptide text is derived from it. Bridges are numbered along the chain shown (N, C = ends). Roman numbers before positions name the chains, in order. [ ]: non-standard residue; d: D form. Actinocin(9to1) = Cc1c2oc3c(C)ccc(C(=O)[*:1])c3nc-2c(C(=O)[*:2])c(N)c1=O; NMeT = CN[CH](C(=O)O)[CH](C)O; Sar = CNCC(=O)O
endpoint-label: growth inhibition (%)
Numbers only, in %.

# example entries with known answers
Reported growth inhibition for COc1ccc(Cc2coc3ccccc3c2=O)cc1 : what is it? 7.35

Reported growth inhibition, compound O=C1c2c(c3c4ccccc4[nH]c3c3[nH]c4ccccc4c23)C(=O)N1Cc1ccccc1 : ____ -5.95

Look up growth inhibition: Cc1cccn2c(C)nnc12 25.7

Record request: growth inhibition value, item CC1c2c(cc(=O)n(C)c2O)C(=O)N1Cc1ccccc1 (configuration not stated) 5.75

Batch request: growth inhibition per item, same order as input.
1. Cc1ccc(C(=O)c2c(C)cccc2C(=O)O)c(C)c1
2. CC(=O)OC1CC(n2cc(C)c(=O)[nH]c2=O)OC1COP(=O)(N1CC1)N1CC1 (configuration not stated)
3. OC1CCC(O)[C@H]2[C@@H]1[C@@H]1S[C@H]2c2ccccc21 (some centres not stated)
4. COc1cc([N+](=O)[O-])ccc1NC(=O)c1cccc([N+](=O)[O-])c1C(=O)O
5. CC(C)OC(=O)N[C@@H]1c2ccccc2CC[C@H]1I
6. Cc1c2oc3c(C)ccc(C(=O)NC4C(=O)NC(C(C)C)C(=O)N5CCCC5C(=O)N(C)CC(=O)N(C)C(C(C)O)C(=O)OC4C)c3nc-2c(C(=O)NC2C(=O)NC(C(C)C)C(=O)N3CCCC3C(=O)N(C)CC(=O)N(C)C(C(C)O)C(=O)OC2C)c(N)c1=O (configuration not stated) (I: TVP[Sar][NMeT] / II: TVP[Sar][NMeT]; ester I:1-I:C, II:1-II:C; linker I:N-II:N via Actinocin(9to1); configuration not given here)
7. c1ccc(-c2cc3c4ccccc4ccn3c2)cc1
8. CC(=O)Nc1ccc[n+](C)c1

1: -2.1; 2: -1.25; 3: -14.8; 4: 20.6; 5: 5.8; 6: -21; 7: 10.2; 8: 17.9

----------
test: NCI Yeast Anticancer Drug Screen. Data for the sgs1 mgt1 strain (AID 161);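 also: 0% = growth of cultures given vehicle only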; details: S. cerevisiae sgs1 mgt1 strain, at 50.0 µM, active compounds read high
The panel holds about 79,000 compounds, 15% with a hit somewhere; the sample as a whole holds those more often. Calls of active or inactive are those of the source. Rule as the data show it: active = growth inhibition above about 70%; inactive = the rest.
endpoint-label: growth inhibition

The examples below pair each entry with its known result.
So what does the record say about growth inhibition for CCOc1c(OC)cc(C2c3cc4c(c(OCC)c3CC3COC(=O)C32)OCO4)cc1OC (centres undefined) ? 48.6% (inactive)

Request the reported growth inhibition associated with COc1ccc(CC2COC(=O)[C@@H]2Cc2ccc(O)cc2)cc1OC (some centres undefined) -14.1% (inactive)

# lookup: growth inhibition of O=C(c1ccccc1)[C@H]1Nc2ccc(Cl)cc2[C@H]2c3ccccc3O[C@H]21 12.4% (inactive)

New cases:
Form field: reported growth inhibition of CN(C)Cc1cc(N=Nc2c(Cl)cccc2Cl)ccc1O 8.35% (inactive)

----------
assay: NCI Yeast Anticancer Drug Screen. Data for the cln2 rad14 strain (AID 165);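 also: 0% = growth equal to vehicle treated cultures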; settings: S. cerevisiae cln2 rad14 strain, at 50.0 µM, active compounds read high
This is part of a sample that, as a whole, favours compounds with a hit. Of some 79,000 tested, about 15% had one in any assay.
endpoint-label: growth inhibition (%)
One number for each entry, in %.

Examples from the recorded data:
What growth inhibition value was documented for this molecule, CC(C)(C)c1ccccc1OC(=O)Nc1ccc(F)cc1 ? -14.2

Name the recorded growth inhibition for O=C1N/C(=N\OCCc2ccccc2)CC(NOCCc2ccccc2)N1 (stereo not drawn) . -11.6

Further cases:
Record request: growth inhibition value, item COc1cc(C2c3cc4c(cc3OC(C)(OC)C2C(C)=O)OCO4)cc(OC)c1O (stereo not drawn) -2.9

----------
assay: NCI Yeast Anticancer Drug Screen. Data for the mec2-1 strain (AID 157); conditions: S. cerevisiae mec2-1 strain, at 50.0 µM, active compounds read high
Compounds without any hit were thinned out: in the full panel of roughly 79,000, 15% have a hit.
Assign growth inhibition to each entry below.
Give bare numbers, in %.

Hello, I would appreciate it if you could give growth inhibition for each entry below.
1. CC1=N/C(=C/c2ccccc2)C(=O)O1
2. O=C(Cl)N(C1CCCCC1)C1CCCCC1
3. CNc1ncc(-c2nnnn2-c2ccccc2)c(CN(C)C)n1
4. COc1cc(/C=C/C=C2\CCC/C(=C\C=C\c3ccc(O)c(OC)c3)C2=O)ccc1O
5. CNC(C)C#N (stereo not given)
6. COc1cccc(C[n+]2cc([O-])on2)c1
7. CCCC(=O)n1[nH]c(=O)n(-c2ccc(Cl)cc2)c1=O
8. CCCCNC1(N(C)C)N=C(N(C)C)N=C(N(C)C)O1 (stereo not given)

0.75
-8.8
-3.05
-0.05
-11.6
26.1
-12.3
-1.4

For each of the compounds below, note its growth inhibition.
1. CCN(CC)N1C(=O)[N+](CC)(CC)N=C1[O-]
2. CCN(CC)CCCC(C)Nc1nccc(/C=C/c2ccc(Cl)cc2)n1 (stereo not given)
3. Clc1cccc(NCNC2Nc3ccccc3N2)c1
4. CCOC(=O)CCC(NC(=O)c1ccc(N=Cc2nc3ccccc3nc2-c2ccccc2)cc1)C(=O)OCC (stereo not given)
5. N#Cc1ccc(NC(=NCC(=O)O)Nc2ccc3ccccc3c2)cc1
6. O=C(O)CO
7. Cc1cc(C)c(NC(=O)NC2CCCCC2)c(C)c1

[4.15, 16.3, 20, 0.95, -30.6, 3.05, 7.05]
